assay remarks: Chromatographic hydrophobicity index CHI logD determination (UltraCore SuperC18 column)
Format: physicochemical
condition parameters: pH 10.5, 50 mM ammonium acetate/ACN; read-out: CHILogD pH 10.5

>  <molecule>
COc1cccc(-c2cc3ncc(C(N)=O)c(N[C@@H]4CCN(c5ccc(C#N)nn5)CC4(C)C)n3n2)n1 [CPL409116]

>  <chromatographic logD>
3.05

$$$$

----------
assay remarks: Chromatographic hydrophobicity index CHI logD determination (UltraCore SuperC18 column)
Format: physicochemical
condition parameters: pH 2.6, 10 mM formic acid/ACN; read-out: CHILogD pH 2.6

>  <molecule>
COc1cccc(-c2cc3ncc(C(N)=O)c(N[C@@H]4CCN(c5ccc(C#N)nn5)CC4(C)C)n3n2)n1

>  <chromatographic logD>
3.51

$$$$

----------
assay remarks: Chromatographic hydrophobicity index CHI logD determination (UltraCore SuperC18 column)
Format: physicochemical
condition parameters: pH 7.4, 50 mM ammonium acetate/ACN; read-out: CHILogD pH 7.4

>  <molecule>
COc1cccc(-c2cc3ncc(C(N)=O)c(N[C@@H]4CCN(c5ccc(C#N)nn5)CC4(C)C)n3n2)n1

>  <chromatographic logD>
3.09

$$$$

----------
assay remarks: Solubility in aqueous solutions
Type: physicochemical
condition parameters: pH 7.4, aqueous buffer; phosphate buffer with a pH of 7.4

>  <compound>
COc1cccc(-c2cc3ncc(C(N)=O)c(N[C@@H]4CCN(c5ccc(C#N)nn5)CC4(C)C)n3n2)n1 [CPL409116]

>  <solubility>
< 0.1 µg/mL

$$$$
